method-notes: Toxicity liver stage against HepG2, at 10uM
Assay type: cell-based
Design: test concentration 10 uM, cell line HepG2-A16-CD81EGFP
run-parameters: human, HepG2-A16-CD81EGFP cells; read-out: INHIBITION
experimental-endpoint: cytotoxicity at 10 µM (%)
Kindly answer with a numeric value in %, unit omitted.

Consider the following illustrative entries.
COc1ccc(-c2noc([C@@H]3C[C@@H](O)CN3C3CCCCC3)n2)cc1 :: 3.25
O=C(c1ccoc1)N1C[C@@H]2[C@@H](C1)OCC(=O)N2Cc1cccnc1 :: 3.33
CCS(=O)(=O)N1CCC2(CC1)CC(OCC1CC1)CO2 (stereo not given) :: 7.92
CC(Oc1ccc(F)cc1F)C(=O)N1CCC2(CCCO2)CC1 (stereo not given) :: 2.24
CCOCc1ncn2c1CN(C(=O)c1ccoc1)CC2 :: -72.6
CC(C)n1cc2cc(NC(=O)Cn3cnnn3)ccc2n1 :: -138

Next up:
QUERY: Input CCNC(=O)C1CCCN(c2ccc3ccc(F)cc3n2)C1 (stereo not given) , output reported cytotoxicity at 10 µM.
RESULT: -1.69

---

# cytotoxicity at 10 µM listing for each entry below
method-notes: Toxicity liver stage against HepG2, at 10uM
Assay type: cell-based
Design: test concentration 10 uM, cell line HepG2-A16-CD81EGFP
run-parameters: human, HepG2-A16-CD81EGFP cells; read-out: INHIBITION
Kindly answer with a numeric value in %, unit omitted.

Consider the following illustrative entries.
CC1=N[C@@]2(CC[C@@H]3CN(C(=O)NCC(C)C)C[C@@H]32)C(=O)N1CC(C)C :: 2.68
Cc1cc(C)n(CC2CN(CCOc3cccc(F)c3)CCO2)n1 (stereo not drawn) :: -7.44
CC(O)CN1CCN(Cc2coc(-c3ccc(Cl)cc3)n2)CC1 (stereo not drawn) :: -7.42
CC(C)COC(C)C(=O)NCc1ccc(F)cc1 (stereo not drawn) :: -2.9
O=C1N(Cc2cccc(F)c2)CCC12CCCN(c1ncc(F)cn1)C2 (stereo not drawn) :: 0.797

QUERY: Input CNC(=O)CCCNCc1c(C(C)C)nn(C)c1N(C)C , output reported cytotoxicity at 10 µM.
RESULT: -12.7

QUERY: Input C=C(C)COc1ccccc1C(=O)NCCCc1nnn[nH]1 , output reported cytotoxicity at 10 µM.
RESULT: -1.82

QUERY: Input Cc1nn(C)c(C)c1CN(C(=O)c1cnc(O)cn1)C(C)C , output reported cytotoxicity at 10 µM.
RESULT: 2.62

---

# cytotoxicity at 10 µM listing for each entry below
method-notes: Toxicity liver stage against HepG2, at 10uM
Assay type: cell-based
Design: test concentration 10 uM, cell line HepG2-A16-CD81EGFP
run-parameters: human, HepG2-A16-CD81EGFP cells; read-out: INHIBITION
Kindly answer with a numeric value in %, unit omitted.

Consider the following illustrative entries.
COc1ccc(OC)c(C2CC(=O)Nc3nc(N4CCOCC4)sc32)c1 (centres undefined) :: 14.3
COc1ccccc1CC(=O)N1CCC(NCc2ccccn2)CC1 :: -11.5
Cn1c(N2CCOCC2)nc2cc(C(=O)N3CC(O)CO3)ccc21 (centres undefined) :: 18.5

Next up:
QUERY: Input CCOC1CCCN(C(=O)CCOc2ccc(C)cc2OC)C1 (centres undefined) , output reported cytotoxicity at 10 µM.
RESULT: -9.22

---

method-notes: Toxicity liver stage against HepG2, at 10uM
Type: cell-based
Set-up: test concentration 10 uM, cell line HepG2-A16-CD81EGFP
run-parameters: human, HepG2-A16-CD81EGFP cells; read-out: INHIBITION
# cytotoxicity at 10 µM listing for each entry below
Kindly answer with a numeric value in %, unit omitted.

Consider the following illustrative entries.
NC(=O)C1CCCN1Cc1cccc(NC(=O)c2ccsc2)c1 (stereo not drawn) :: 16.3
Cc1ccc(C(=O)N2C[C@H](NS(C)(=O)=O)[C@@H](C(C)C)C2)cc1F :: -2.36
COCC(=O)N1CCCn2c(CN3CCCC3)nnc2C1 :: -130
Cc1cc(C2CCCN2C(=O)COc2ccc(CC#N)cc2)on1 (stereo not drawn) :: -49.6
CN1CCC2(CCN(C(=O)c3cccnc3)C2)C1 (stereo not drawn) :: -101

QUERY: Input N#CC(NC(=O)CCCOc1cccnc1)c1ccccc1Cl (stereo not drawn) , output reported cytotoxicity at 10 µM.
RESULT: 4.26

QUERY: Input CN1CC2(CCN(C(=O)c3coc4c3C(=O)CCC4)C2)OC1=O (stereo not drawn) , output reported cytotoxicity at 10 µM.
RESULT: -2.36

QUERY: Input CNS(=O)(=O)c1ccc(CNC(=O)C2CCCN(C)C2)cc1 (stereo not drawn) , output reported cytotoxicity at 10 µM.
RESULT: -10.5

QUERY: Input CN1CC(=O)N(c2cccc(F)c2)CC12CCN(Cc1ccccn1)C2 (stereo not drawn) , output reported cytotoxicity at 10 µM.
RESULT: 2.49

QUERY: Input CCOCc1nnc(NCc2cccnc2)o1 , output reported cytotoxicity at 10 µM.
RESULT: 10.9

QUERY: Input O=C1N(CCC2CCCCC2)CCCC1(O)CNCCc1ccccc1 (stereo not drawn) , output reported cytotoxicity at 10 µM.
RESULT: -8.92

QUERY: Input O=C(Nc1nc2c(s1)CN(S(=O)(=O)C1CC1)CC2)C1CC1 , output reported cytotoxicity at 10 µM.
RESULT: -0.849

QUERY: Input Cc1cccc(CN(Cc2cccnc2)C2CC(C)(C)NC(C)(C)C2)n1 , output reported cytotoxicity at 10 µM.
RESULT: -5.11

QUERY: Input CCCC(C)CN1CCC(n2cc(CCCO)nn2)CC1 (stereo not drawn) , output reported cytotoxicity at 10 µM.
RESULT: 3.22

QUERY: Input Cc1nn(C)c2nc(N3CCNC(=O)C3C(C)C)sc12 (stereo not drawn) , output reported cytotoxicity at 10 µM.
RESULT: -10

QUERY: Input CCC[C@@H]1CN(Cc2ccc3c(c2)OCCO3)C[C@H]1C(=O)O , output reported cytotoxicity at 10 µM.
RESULT: 0.324

QUERY: Input CC(C)Nc1cc(N2CCC(n3cc(C4CCCC4)nn3)CC2)ncn1 , output reported cytotoxicity at 10 µM.
RESULT: 7.81

QUERY: Input Cc1cc(CNC(=O)CCc2ccc(S(N)(=O)=O)cc2)no1 , output reported cytotoxicity at 10 µM.
RESULT: 7.81

---

# cytotoxicity at 10 µM listing for each entry below
method-notes: Toxicity liver stage against HepG2, at 10uM
Type: cell-based
Set-up: test concentration 10 uM, cell line HepG2-A16-CD81EGFP
run-parameters: human, HepG2-A16-CD81EGFP cells; read-out: INHIBITION
Kindly answer with a numeric value in %, unit omitted.

Cn1c(NCC(=O)N2CCCCC2)c(C#N)c(=O)n(C)c1=O :: 5.83
Cc1cc(C)n(C2CN(CC(=O)NC3CCOCC3)C2)n1 :: -3.92

QUERY: Input Cn1cc(CN2CCc3ccc(=O)n(CC4CC4)c3CC2)cn1 , output reported cytotoxicity at 10 µM.
RESULT: 3.24

QUERY: Input Cc1ccc(C(=O)N2CCN(C(=O)Nc3ccccn3)CC2)o1 , output reported cytotoxicity at 10 µM.
RESULT: 2.14

QUERY: Input Cc1cc(CN(C)C2CCCN(c3cccnn3)C2)on1 (stereo not drawn) , output reported cytotoxicity at 10 µM.
RESULT: 16

---

method-notes: Toxicity liver stage against HepG2, at 10uM
Assay type: cell-based
Set-up: test concentration 10 uM, cell line HepG2-A16-CD81EGFP
run-parameters: human, HepG2-A16-CD81EGFP cells; read-out: INHIBITION
experimental-endpoint: cytotoxicity at 10 µM (%)
Kindly answer with a numeric value in %, unit omitted.

Consider the following illustrative entries.
COc1cccc(F)c1C(C)NC(=O)NCc1cc(C(C)C)no1 (centres undefined) :: 4.25
Cc1nc(N)ncc1C(=O)N1CCCC(CCc2ccc(F)cc2)C1 (centres undefined) :: -8.3
CC1c2ncc(COCC3CCOCC3)n2CCN1S(C)(=O)=O (centres undefined) :: 3.11

QUERY: Input Cn1ncnc1NS(=O)(=O)c1ccc(F)cc1Cl , output reported cytotoxicity at 10 µM.
RESULT: 5.73

QUERY: Input O=C(NCc1cnc2n1CCN(CC1CC1)CC2)C1CCC1 , output reported cytotoxicity at 10 µM.
RESULT: -12.9

---

method-notes: Toxicity liver stage against HepG2, at 10uM
Format: cell-based
Design: test concentration 10 uM, cell line HepG2-A16-CD81EGFP
run-parameters: human, HepG2-A16-CD81EGFP cells; read-out: INHIBITION
experimental-endpoint: cytotoxicity at 10 µM

Consider the following illustrative entries.
CN1CCOC(CN(C(=O)COc2ccccc2)c2nccs2)C1 (centres undefined) :: -8.18%
Cc1noc(C)c1CN1CCCC(c2noc(C3CC3)n2)C1 (centres undefined) :: -12.8%
Cc1nn(C)cc1CN1CCC(C2Nc3ccccc3S(=O)(=O)N2)CC1 (centres undefined) :: -2.19%
Cc1nn(C)c(N(C)C)c1CNC(C)c1cccnc1 (centres undefined) :: -2.8%
NC(=O)c1ccc(C2CCCN2C(=O)CCn2nnc3ccccc32)s1 (centres undefined) :: 3.92%

QUERY: Input Cc1sc2nc(CCN)nc(N3CCC(N4CCCC4)CC3)c2c1C , output reported cytotoxicity at 10 µM.
RESULT: -51.6%

QUERY: Input COCc1cc(O)nc(C2CCCN(Cc3ccc(F)cc3)C2)n1 (centres undefined) , output reported cytotoxicity at 10 µM.
RESULT: -9.88%

QUERY: Input Cc1nn(CCC(=O)N2CCN(Cc3cnn(C)c3C)CC2)c(C)c1Br , output reported cytotoxicity at 10 µM.
RESULT: 4.07%

QUERY: Input N#Cc1nccnc1N1CCC(c2nc(C(F)(F)F)c[nH]2)CC1 , output reported cytotoxicity at 10 µM.
RESULT: 4.25%
